Can you tell me viscosity for the items I'm about to list?
Assay Method Text: xn = mol fraction of the nth substance listed
Protocol Conditions: 308 K; 101 kPa; x1 = 0.25
± gives the uncertainty stated by the source.
Answers without a unit are incomplete; give the number and then its unit.

[[record]]
molecule = "CCCCCCCCCCCCCCCCCC(=O)OC + C1CCCCC1"
measured_value = "1.95 ± 0.04 mPa·s"


Record viscosity per entry; entries follow.
1. CCCCCCCCCCCCCCCCCC(=O)OC + ClC(Cl)=C(Cl)Cl
2. CCCCCCCCCCCCCCCCCC(=O)OC + CCCCCC
3. CCCCCCCCCCCCCCCCCC(=O)OC + ClC=C(Cl)Cl

Result ::
["2.16 ± 0.26 mPa·s", "1.05 ± 0.02 mPa·s", "1.77 ± 0.04 mPa·s"]

* * *

Protocol Conditions: 323.15 K; 101 kPa
Can you tell me log10 viscosity for the items I'm about to list?
All values: base-10 log of viscosity in mPa·s.

Look over these answered cases.
[[record]]
compound = "O=Cc1ccccc1"
measured_value = -0.01

[[record]]
compound = "O=C(O)C(Cl)Cl"
measured_value = 0.51

[[record]]
compound = "[Br-].[Br-].[Br-].[Br-].[Sn+4]"
measured_value = 0.25

[[record]]
compound = "c1ccc(Nc2ccccc2)cc1"
measured_value = 0.77

[[record]]
compound = "c1ccsc1"
measured_value = -0.33


Record log10 viscosity per entry; entries follow.
1. NCCO.O=CO
2. CC(O)C(C)O (configuration not stated)

Result ::
1.77
1.23

* * *

Can you tell me viscosity for the items I'm about to list?
Protocol Conditions: 313.15 K; 101.33 kPa
Numbers only, in mPa·s.

[[record]]
mol_smiles = "Cc1ccc(C)cc1"
property = "viscosity"
unit_symbol = "mPa·s"
measured_value = 0.5064


Record viscosity per entry; entries follow.
1. O=Cc1ccccc1
2. CCCCCCCCN
3. CCOC(=O)c1ccccc1C(=O)OCC

Result ::
1.17
0.9864
6.3

* * *

Assay Method Text: xn = mol fraction of the nth substance listed
Protocol Conditions: 298 K; 101 kPa; x1 = 0.2
Property: viscosity (mPa·s)
One number for each entry, in mPa·s.

Look over these answered cases.
[[record]]
compound = "CCCCCCCCCCCCCCCCCC(=O)OC + ClC=C(Cl)Cl"
measured_value = 1.73

[[record]]
compound = "CCCCCCCCCCCCCCCCCC(=O)OC + C1CCCCC1"
measured_value = 2.03

[[record]]
compound = "CCCCCCCCCCCCCCCCCC(=O)OC + ClC(Cl)=C(Cl)Cl"
measured_value = 2.14


Query :: Tell me measured viscosity for CCCCCCCCCCCCCCCCCC(=O)OC + CCCCCC please.
Result :: 1.08

* * *

Assay Method Text: xn = mol fraction of the nth substance listed
Protocol Conditions: 303 K; 101 kPa; x1 = 0.15
± gives the uncertainty stated by the source.
Property: viscosity

Look over these answered cases.
[[record]]
molecule = "CCCCCCCCCCCCCCCCCC(=O)OC + C1CCCCC1"
property = "viscosity"
measured_value = "1.58 ± 0.03 mPa·s"

[[record]]
molecule = "CCCCCCCCCCCCCCCCCC(=O)OC + ClC=C(Cl)Cl"
property = "viscosity"
measured_value = "1.3 ± 0.03 mPa·s"

[[record]]
molecule = "CCCCCCCCCCCCCCCCCC(=O)OC + CCCCCC"
property = "viscosity"
measured_value = "0.79 ± 0.02 mPa·s"


Read the next record carefully.
Query :: Tell me measured viscosity for CCCCCCCCCCCCCCCCCC(=O)OC + ClC(Cl)=C(Cl)Cl please.
Result :: 1.68 ± 0.2 mPa·s
